TARGET_SYSTEM: T1, MSLN·His protein (human, UniProt Q13421 296-580, limits assumed)
T1 construct: Bought protein; also called human MSLN·His antigen; not shown: His tag
T1 sequence (Q13421 other isoform, or with tags, fused parts or gaps limits assumed): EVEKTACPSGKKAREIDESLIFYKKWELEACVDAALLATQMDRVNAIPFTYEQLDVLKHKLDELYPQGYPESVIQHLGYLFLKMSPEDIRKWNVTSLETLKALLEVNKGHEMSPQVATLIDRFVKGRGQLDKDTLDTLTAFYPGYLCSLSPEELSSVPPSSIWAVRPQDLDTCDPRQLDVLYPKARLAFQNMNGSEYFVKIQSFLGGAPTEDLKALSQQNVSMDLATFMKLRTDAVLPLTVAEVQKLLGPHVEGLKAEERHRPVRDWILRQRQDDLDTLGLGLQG
METHOD: SPR (Biacore), antibody captured on protein A, MSLN·His as analyte
METRIC: log10(Kd) (log10 of the value in nM)
Hello, just confirming the data are log10 of Kd with units of nM.

Please review the entries below; each comes with its answer.
[
  {
    "BINDER": "M2339-z11-5 (antibody, IgG4, V domains shown, Humanized variant of M2339) VH: EVQLVASGGGLVQPGGSLRLSCALSGFTLRELDEFAIGWFRQAPGKEREGVSCISGTGGITHYADSVKGRFTISRDNSKTTVYLQMNSLNAEDTAVYYCAADERCTDRLIRPPTYWGQGTQVTVSS",
    "METRIC": "log10(Kd)",
    "RESULT_NUMBER": 1.58
  },
  {
    "BINDER": "M2339-z11-4 (antibody, IgG4, V domains shown, Humanized variant of M2339) VH: EVQLGASGGGLVQPGGSLRLSCALSGFTLRELDEFAIGWFRQAPGKEREGVSCISGTGGITHYADSVKGRFTISRDNSKTTVYLQMNSLRAEDTAVYYCAADERCTDRLIRPPTYWGQGTQVTVSS",
    "METRIC": "log10(Kd)",
    "RESULT_NUMBER": 1.17
  },
  {
    "BINDER": "M2339-z11-10 (antibody, IgG4, V domains shown, Humanized variant of M2339) VH: QLQLVESGGGLVQPGGSLRLSCALSGFTLRELDEFAIGWFRQAPGKEREGVSCISGTGGITHYADSVKGRFTISRDIAKTTVYLQMNSLNSEDTAVYYCAADERCTDRLIRPPTYWGQGTQVTVSS",
    "METRIC": "log10(Kd)",
    "RESULT_NUMBER": -0.62
  },
  {
    "BINDER": "M2339-z11-3 (antibody, IgG4, V domains shown, Humanized variant of M2339) VH: ELQLVASGGGLVQPGGSLRLSCALSGFTLRELDEFAIGWFRQAPGKEREGVSCISGTGGITHYADSVKGRFTISRDNSKTTVYLQMNSLRAEDTAVYYCAADERCTDRLIRPPTYWGQGTQVTVSS",
    "METRIC": "log10(Kd)",
    "RESULT_NUMBER": 0.44
  }
]

Continue with the binder presented below.
Enquiry: Any idea what log10(Kd) was measured for M2339-z11-2 (antibody, IgG4, V domains shown, Humanized variant of M2339) VH: QVQLVASGGGLVQPGGSLRLSCALSGFTLRELDEFAIGWFRQAPGKEREGVSCISGTGGITHYADSVKGRFTISRDNSKTTVYLQMNSLRAEDTAVYYCAADERCTDRLIRPPTYWGQGTQVTVSS ?
Return: -0.55
